system: UO-31 renal; test: NCI-60 one-dose screen, 48 h (100 = growth as untreated, 0 = no growth, -100 = all killed); conditions: 10 µM unless noted
This is part of a sample that, as a whole, favours compounds with a hit. Of some 83,000 tested, about 20% had one in any assay. Calls of active or inactive are those of the source. Rule for the calls: active = growth percent below 10; inactive = the rest.
Some compounds, each annotated with its measured growth.

Asked: Under UO-31 renal: growth value of `CCN(CC)c1ccc2c(c1)OS(=O)(=O)N=C2` ?
Given back: 82.6% (inactive)

Asked: Return growth measured with UO-31 renal given this compound: `Cc1ccc(-c2c3c(N)c4c(nc3nc3c2c(C)nn3-c2ccccc2)CCCC4)cc1`
Given back: 88% (inactive)

Asked: Query the reported growth for UO-31 renal; item: `Cc1cc(=O)oc2c1ccc1oc(C(=O)c3ccccc3)c(C)c12`
Given back: 100% (inactive)

Asked: Enter reported growth observed with UO-31 renal for `CN1CCc2c(Sc3ccc(C(=O)NO)cc3)c3ccccc3n2C1`
Given back: 62.8% (inactive)

Asked: # returns recorded growth (system: UO-31 renal) for `CC(C)(C)CC(C)(C)N(CSc1ccc(Cl)cc1)CSc1ccc(Cl)cc1`
Given back: 25.5% (inactive)

Asked: growth of COc1cc(C2=NN(c3ccc(S(N)(=O)=O)cc3)C(c3ccc(Cl)cc3)C2)cc(OC)c1OC (centres undefined) on UO-31 renal?
Given back: 23.2% (inactive)

Asked: Item: CC1CCCCN1S(=O)(=O)c1ccc(CN=C=S)cc1 (centres undefined) Test system: UO-31 renal Read-out: growth Value: ?
Given back: 54% (inactive)

Asked: Record `COc1ccc(-c2nc3sccn3c2/C=C/C(=O)c2cc(OC)c(OC)c(OC)c2)cc1OC` : what is its growth with UO-31 renal?
Given back: 14% (inactive)

Asked: Please tell me: growth of `CON=C1C[C@]2(C[C@@H]3C[C@@H](C/C=C(\C)C[C@@H](C)/C=C/C=C4\CO[C@@H]5[C@H](O)C(C)=C[C@@H](C(=O)O3)[C@]45O)O2)O[C@H](/C(C)=C/C(C)C)[C@H]1C` , system UO-31 renal?
Given back: 24% (inactive)
